target.system: Human KDR (Homo sapiens, UniProt P35968)
Sequence (P35968 20-1356): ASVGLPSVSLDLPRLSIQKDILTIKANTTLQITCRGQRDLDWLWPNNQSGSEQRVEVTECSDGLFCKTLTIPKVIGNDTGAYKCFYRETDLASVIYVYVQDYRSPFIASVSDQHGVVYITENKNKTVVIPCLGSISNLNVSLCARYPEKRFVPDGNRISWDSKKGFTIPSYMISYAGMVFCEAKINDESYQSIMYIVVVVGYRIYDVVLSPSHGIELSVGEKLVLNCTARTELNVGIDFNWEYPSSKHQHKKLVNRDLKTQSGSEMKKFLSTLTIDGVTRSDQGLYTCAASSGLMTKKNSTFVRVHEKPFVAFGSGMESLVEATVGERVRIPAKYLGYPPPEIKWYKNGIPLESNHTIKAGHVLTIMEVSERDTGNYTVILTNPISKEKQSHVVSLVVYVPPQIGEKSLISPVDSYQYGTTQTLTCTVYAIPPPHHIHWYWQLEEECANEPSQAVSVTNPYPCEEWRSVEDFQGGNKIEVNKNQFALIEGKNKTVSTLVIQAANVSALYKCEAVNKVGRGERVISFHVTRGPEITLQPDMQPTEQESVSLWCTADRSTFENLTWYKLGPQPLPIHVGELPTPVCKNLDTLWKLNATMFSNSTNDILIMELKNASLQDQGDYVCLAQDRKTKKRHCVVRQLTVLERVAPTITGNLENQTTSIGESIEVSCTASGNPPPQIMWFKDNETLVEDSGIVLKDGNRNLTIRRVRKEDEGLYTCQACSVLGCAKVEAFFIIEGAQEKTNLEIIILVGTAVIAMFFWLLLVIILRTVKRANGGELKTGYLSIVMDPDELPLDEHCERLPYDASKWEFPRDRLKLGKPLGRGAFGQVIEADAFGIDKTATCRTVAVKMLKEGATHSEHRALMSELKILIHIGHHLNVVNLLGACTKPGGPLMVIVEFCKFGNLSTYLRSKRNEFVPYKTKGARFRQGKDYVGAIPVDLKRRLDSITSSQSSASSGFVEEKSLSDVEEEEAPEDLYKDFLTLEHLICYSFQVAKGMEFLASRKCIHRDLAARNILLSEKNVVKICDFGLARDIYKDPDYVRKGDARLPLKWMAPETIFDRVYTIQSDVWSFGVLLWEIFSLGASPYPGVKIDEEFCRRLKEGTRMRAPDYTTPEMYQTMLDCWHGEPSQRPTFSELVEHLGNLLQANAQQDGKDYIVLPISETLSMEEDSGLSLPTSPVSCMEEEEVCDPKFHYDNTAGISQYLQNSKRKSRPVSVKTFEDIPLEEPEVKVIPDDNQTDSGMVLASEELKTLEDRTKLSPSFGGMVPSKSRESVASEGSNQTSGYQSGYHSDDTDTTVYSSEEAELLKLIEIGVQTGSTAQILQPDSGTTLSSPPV
assay: Inhibition of KDR phosphorylation in human KDR-transfected NIH3T3 cells (ELISA)
assay.setup: human KDR-transfected NIH3T3 cells, VEGF 100 ng/ml, ELISA; read-out: KDR phosphorylation 50% inhibitory concentration (IC50)
pIC50: −log10 of the molar value.
Please use True whenever pIC50 is not below 8, and False whenever it is.

Record excerpt, results attached:
COc1cc2nccc(Oc3ccc(NC(=O)N[C@@H](C)c4nccs4)cc3OC)c2cc1OC [Example 81] | False
COc1cc2nccc(Oc3ccc(NC(=O)NC(C)c4ncc(C)s4)c(C(F)(F)F)c3)c2cc1OC (stereo not shown) [Example 104] | False
COc1cc2nccc(Oc3ccc(NC(=O)N[C@@H](C)c4ccc(F)cc4)c(C)c3C)c2cc1OC [Example 26] | False
COc1cc(Oc2ccnc3cc(OC)c(OC)cc23)ccc1NC(=O)NC(C)c1ccc(F)cc1 (stereo not shown) [Example 16] | True
COc1cc2nccc(Oc3ccc(NC(=O)NC(C)c4ccc(F)cc4)c(F)c3)c2cc1OC (stereo not shown) [Example 28] | True

Here is the next item to consider.
(Q) Hello, I need to know if COc1cc2nccc(Oc3ccc(NC(=O)NC(C)c4ccc(F)cc4)cc3Cl)c2cc1OC (stereo not shown) [Example 10] has measured pIC50 not below 8. Thanks!
(A) True
